Molecular target: Histone deacetylase
Test: Inhibition of HDAC in human A2780 cells using Boc-Lys(epsilon-Ac)-AMC as substrate preincubated for 18 hrs followed by substrate addition and measured after 3 hrs by fluorescence assay
Assay type: cell-based

Substance smiles: Cc1cc(C)cc(C(=O)N(CC(=O)NCc2ccccc2)Cc2ccc(C(=O)Nc3cc(-c4ccccc4)ccc3N)cc2)c1
IC50 [nM]: 1720

Substance smiles: Cc1cc(C)cc(C(=O)N(CC(=O)NCc2ccccc2)Cc2ccc(C(=O)Nc3ccccc3N)cc2)c1
IC50 [nM]: 810

Substance smiles: CN(C)c1ccc(C(=O)N(CCCCCC(=O)Nc2cc(F)ccc2N)CC(=O)NCc2ccccc2)cc1
IC50 [nM]: 13400

Substance smiles: COc1ccc(CNC(=O)CN(CCCCCC(=O)Nc2ccccc2N)C(=O)c2cc(C)cc(C)c2)cc1
IC50 [nM]: 3530
